// provenance: patent US20110288086A1

system: K562 human chronicity marrow leukemic cells; test: Tumor cell inhibition ratio, CCK-8 kit, K562; conditions: K562, read-out: Antiproliferative effect (inhibition ratio) K562
observed property: inhibition at 100 µM (%)
# value in %; strip the unit string

Example compounds with recorded inhibition at 100 µM:
Give the measured inhibition at 100 µM for COCCOc1cc2c(cc1OCCOC)C1=Nc3cccc(O)c3CN1C=N2
92.2

Entry COCCOc1cc2c(cc1OCCOC)C1=Nc3ccc(F)c(Cl)c3CN1C=N2 needs its inhibition at 100 µM filled in; supply it.
98.5

Check the records and state inhibition at 100 µM for COCCOc1cc2c(cc1OCCOC)C1=Nc3cccc(Cl)c3CN1C=N2.Cl [Compound V-1, hydrochloride monohydrate]
87

Continuing:
Name the recorded inhibition at 100 µM of the item COCCOc1cc2c(cc1OCCOC)C1=Nc3cccc(C#N)c3CN1C=N2 in your answer.
61.7

Report measured inhibition at 100 µM; entry is COCCOc1cc2c(cc1OCCOC)C1=Nc3cccc(OC)c3CN1C=N2
85

###

tested on: Jurkat E6-1 human T-cell lymphoma; experiment: Tumor cell inhibition ratio, CCK-8 kit, Jurkat E6-1; conditions: Jurkat E6.1, read-out: Antiproliferative effect (inhibition ratio) E6-1
Counter-ions that a name gives are not always drawn.
Entries get a class label from measured inhibition at 10 µM. See ranges: group A: < 40%; group B: ≥ 40% and < 50%; group C: ≥ 50%

Example entries begin here.
Please indicate the class for COc1cc2c(cc1OCCCN1CCCC1)C1=Nc3cccc(Cl)c3CN1C=N2 based on its inhibition at 10 µM.
group B

Which class does COCCOc1cc2c(cc1OCCOC)C1=Nc3cc(COS(C)(=O)=O)cc([N+](=O)[O-])c3CN1C=N2.Cl [Compound V-20, hydrochloride] fall in?
group C

In plain terms, what class is COCCOc1cc2c(cc1OCCOC)C1=Nc3cccc(F)c3CN1C=N2 [Compound V-3, mesylate] ?
group B

For Br.COCCOc1cc2c(cc1OCCOC)C1=Nc3cccc(N)c3CN1C=N2 [Compound V-6, hydrobromide trihydrate] , which inhibition at 10 µM bin applies?
group C

Classify this compound: COc1cc2c(cc1OCCCN1CCOCC1)C1=Nc3ccc(F)c(Cl)c3CN1C=N2 [Compound V-23, di-p-toluenesulfonate]
group C

Sort COc1cc2c(cc1OCCCN1CCOCC1)C1=Nc3cccc(C#N)c3CN1C=N2 into one of the categories.
group A

Which class does COCCOc1cc2c(cc1OCCOC)C1=Nc3cc(F)ccc3CN1C=N2 fall in?
group C

# classify by inhibition at 10 µM band: COCCOc1cc2c(cc1OCCOC)C1=Nc3cc(O)ccc3CN1C=N2
group B

New cases:
Which class holds C#Cc1cccc2c1CN1C=Nc3cc(OC)c(OCCCN4CCOCC4)cc3C1=N2 ?
group B

Entry CS(=O)(=O)CCNCc1ccc(-c2ccc3c(c2)C2=Nc4ccc(OCc5cccc(F)c5)c(Cl)c4CN2C=N3)o1 belongs to which category?
group B

# classify by inhibition at 10 µM band: COCCOc1cc2c(cc1OCCOC)C1=Nc3cccc(C(F)(F)F)c3CN1C=N2
group A

For COCCOc1cc2c(cc1OCCOC)C1=Nc3cccc(Cl)c3CN1C=N2.Cl [Compound V-1, hydrochloride monohydrate] , which inhibition at 10 µM bin applies?
group C

###

system: Hut78 T-Lymphocytic Leukemia cells; experiment: Tumor cell inhibition ratio, CCK-8 kit, Hut78; details: Homo sapiens, HuT78, read-out: Antiproliferative effect (inhibition ratio) Hut-78
Counter-ions that a name gives are not always drawn.
observed property: inhibition at 10 µM
Respond with the figure and its unit, in that order.

Before answering, review these 5 worked examples.
Please look at this molecule and report its inhibition at 10 µM: COCCOc1cc2c(cc1OCCOC)C1=Nc3cc(O)ccc3CN1C=N2
19.7%

Note inhibition at 10 µM for the molecule shown: COCCOc1cc2c(cc1OCCOC)C1=Nc3ccc(F)c(Cl)c3CN1C=N2
66.2%

Using the record for COCCOc1cc2c(cc1OCCOC)C1=Nc3cccc(F)c3CN1C=N2 [Compound V-3, mesylate] , state its measured inhibition at 10 µM.
44.1%

Supply reported inhibition at 10 µM belonging to this molecule: COc1cc2c(cc1OCCCN1CCNCC1)C1=Nc3cccc(F)c3CN1C=N2
19%

Entry COCCOc1cc2c(cc1OCCOC)C1=Nc3cc(F)ccc3CN1C=N2 needs its inhibition at 10 µM filled in; supply it.
44.3%

Continuing:
# return recorded inhibition at 10 µM for input CS(=O)(=O)CCNCc1ccc(-c2ccc3c(c2)C2=Nc4ccc(OCc5cccc(F)c5)c(Cl)c4CN2C=N3)o1
61%

# return recorded inhibition at 10 µM for entry Br.COCCOc1cc2c(cc1OCCOC)C1=Nc3cccc(N)c3CN1C=N2 [Compound V-6, hydrobromide trihydrate]
69%

Answer with the recorded inhibition at 10 µM for the molecule listed here: COCCOc1cc2c(cc1OCCOC)C1=Nc3cccc(O)c3CN1C=N2
35.6%

Supply inhibition at 10 µM value. Item: COCCOc1cc2c(cc1OCCOC)C1=Nc3cccc(Cl)c3CN1C=N2.Cl [Compound V-1, hydrochloride monohydrate]
16.1%

Answer with reported inhibition at 10 µM of COCCOc1cc2c(cc1OCCOC)C1=Nc3cc(COS(C)(=O)=O)cc([N+](=O)[O-])c3CN1C=N2.Cl [Compound V-20, hydrochloride]
52.3%

Consider the molecule COCCOc1cc2c(cc1OCCOC)C1=Nc3cccc([N+](=O)[O-])c3CN1C=N2 . State its measured inhibition at 10 µM.
43.8%

For the molecule C#Cc1cccc2c1CN1C=Nc3cc(OC)c(OC)cc3C1=N2 , report inhibition at 10 µM.
41.1%

Indicate the recorded inhibition at 10 µM value for this molecule: C#Cc1ccc2c(c1)N=C1c3cc(OCCOC)c(OCCOC)cc3N=CN1C2
33%

Complete the entry with inhibition at 10 µM for COCCOc1cc2c(cc1OCCOC)C1=Nc3cccc(C(F)(F)F)c3CN1C=N2
19.2%

Give inhibition at 10 µM for COCCOc1cc2c(cc1OCCOC)C1=Nc3ccc(OCc4cccc(F)c4)c(Cl)c3CN1C=N2
21.3%

Consider the molecule C#Cc1cccc2c1CN1C=Nc3cc(OCCOC)c(OCCOC)cc3C1=N2.Cl [Compound V-4, hydrochloride trihydrate] . State its measured inhibition at 10 µM.
44.1%

Input COCCOc1cc2c(cc1OCCOC)C1=Nc3cc(Cl)ccc3C(C)N1C=N2.O=C(O)CC(O)C(=O)O (centres unmarked) [Compound V-22, malate] , output reported inhibition at 10 µM.
54.1%

###

assay: Acute Toxicity Study; conditions: in vivo; preliminary screening, Bliss statistical method
observed property: LD50 (mg/kg)
Number in mg/kg, nothing else.

As a guide, the following entries are already answered.
Answer with the recorded LD50 of COCCOc1cc2c(cc1OCCOC)C1=Nc3cccc(Br)c3CN1C=N2.Cl [Compound V-2] only.
2050

Please supply the value of reported LD50 for the item COCCOc1cc2c(cc1OCCOC)C1=Nc3cc(COS(C)(=O)=O)cc([N+](=O)[O-])c3CN1C=N2.Cl [Compound V-20]
750

Continuing:
Name the recorded LD50 of the item COCCOc1cc2c(cc1OCCOC)C1=Nc3cc(Cl)ccc3C(C)N1C=N2.O=C(O)CC(O)C(=O)O (centres unmarked) [Compound V-22] in your answer.
1340

Retrieve LD50 measured for CS(=O)(=O)CCNCc1ccc(-c2ccc3c(c2)C2=Nc4ccc(OCc5cccc(F)c5)c(Cl)c4CN2C=N3)o1 [Compound V-33] and print it.
2840

Kindly indicate its recorded LD50. Item: COCCOc1cc2c(cc1OCCOC)C1=Nc3cc(Cl)ccc3CN1C=N2 [Compound V-15]
2970

###

system: Jurkat E6-1 human T-cell lymphoma; test: Tumor cell IC50, CCK-8 kit, Jurkat E6-1; format: cell-based; conditions: E6-1 cells
observed property: IC50 (µg/mL)
Give the value, in units of µg/mL, as a plain number.

Jot down IC50 (Jurkat E6-1 human T-cell lymphoma) of COCCOc1cc2c(cc1OCCOC)C1=Nc3cccc(O)c3CN1C=N2 [Compound V-8] .
8.11

Supply IC50 measured with Jurkat E6-1 human T-cell lymphoma for COc1cc2c(cc1OCCCN1CCCC1)C1=Nc3cccc(Cl)c3CN1C=N2 [Compound V-24] .
9.86

Recall the reported IC50 of CS(=O)(=O)CCNCc1ccc(-c2ccc3c(c2)C2=Nc4ccc(OCc5cccc(F)c5)c(Cl)c4CN2C=N3)o1 [Compound V-33] when tested on Jurkat E6-1 human T-cell lymphoma.
15.4

Shifting focus to the molecule that follows.
For Jurkat E6-1 human T-cell lymphoma, give the measured IC50 of the entry COCCOc1cc2c(cc1OCCOC)C1=Nc3cccc(Br)c3CN1C=N2.Cl [Compound V-2]
15.3
